TARGET: Muscarinic acetylcholine receptor M1 (Homo sapiens)
MEASUREMENT DESCRIPTION: Potentiation of muscarinic M1 receptor expressed in CHO cells assessed as effect on acetylcholine-induced intracellular calcium mobilization after 1 hr by FLIPR assay relative to acetylcholine
Type: functional, cell-based
Design: concentration or dose not given beside the values
READOUT LABEL: Activity (%)

[[record]]
smiles_structure = "Cn1cc(-c2ccc(CN3C(=O)C(=O)c4ccccc43)c(F)c2)cn1"
meas_value = 65

[[record]]
smiles_structure = "COc1ccc(Cn2cc(C(=O)O)c(=O)c3ccccc32)cc1"
meas_value = 100

[[record]]
smiles_structure = "Cn1cc(-c2cc(F)c(CN3C(=O)C(=O)c4cccc(F)c43)c(F)c2)cn1"
meas_value = 40


(a) Cn1cc(-c2ccc(CN3C(=O)C(=O)c4c(F)ccc(F)c43)c(F)c2)cn1
(b) Cn1cc(-c2ccc(CN3C(=O)C(=O)c4ccccc43)cc2)cn1
Request: Would you kindly point out which of a and b has the smaller Activity figure? In your reply, give the label of the chosen option.
Response: a

----------
TARGET: Muscarinic acetylcholine receptor M1 (Homo sapiens, UniProt P11229)
Sequence (P11229 whole entry): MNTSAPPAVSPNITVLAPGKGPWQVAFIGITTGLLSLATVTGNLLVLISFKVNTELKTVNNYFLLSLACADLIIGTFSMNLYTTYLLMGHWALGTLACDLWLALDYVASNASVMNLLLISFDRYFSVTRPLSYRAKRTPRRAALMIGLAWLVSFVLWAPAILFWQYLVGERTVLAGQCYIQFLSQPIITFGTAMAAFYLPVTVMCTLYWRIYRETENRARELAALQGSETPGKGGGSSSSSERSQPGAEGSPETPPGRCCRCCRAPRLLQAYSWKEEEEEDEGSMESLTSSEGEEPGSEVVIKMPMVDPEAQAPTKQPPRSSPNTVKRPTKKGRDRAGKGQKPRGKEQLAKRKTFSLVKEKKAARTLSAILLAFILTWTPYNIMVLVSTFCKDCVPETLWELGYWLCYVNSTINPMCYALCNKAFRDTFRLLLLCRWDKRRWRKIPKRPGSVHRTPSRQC
MEASUREMENT DESCRIPTION: Potentiation of muscarinic M1 receptor expressed in CHO cells assessed as effect on acetylcholine-induced intracellular calcium mobilization after 1 hr by FLIPR assay
pEC50: −log10 of the molar value.
READOUT LABEL: pEC50

Sample answers from the record:
[[record]]
smiles_structure = "Cn1cc(-c2ccc(CN3C(=O)C(=O)c4cccc(F)c43)c(F)c2)cn1"
target = "Muscarinic acetylcholine receptor M1 (Homo sapiens, UniProt P11229)"
meas_value = 5.64

[[record]]
smiles_structure = "Cn1cc(-c2cc(F)c(CN3C(=O)C(=O)c4cccc(F)c43)c(F)c2)cn1"
target = "Muscarinic acetylcholine receptor M1 (Homo sapiens, UniProt P11229)"
meas_value = 5.96


(A) Cn1cc(-c2ccc(CN3C(=O)C(=O)c4ccccc43)c(F)c2)cn1
(B) Cn1cc(-c2ccc(CN3C(=O)C(=O)c4ccccc43)cc2)cn1
Request: For this pair, A and B , which shows a numerically higher pEC50? Your answer should be the label attached to the chosen record.
Response: A

Attribution: ChEMBL document CHEMBL1155388
